Cited source for all entries: patent US20220380374A1

- target system: wt human TYK2, catalytic site (Homo sapiens, UniProt P29597)
- Construct: 2 nM wt human TYK2, catalytic site (SignalChem/CAN)
- assay remarks: HTRF KinEASE assay, TYK2
- condition label: 1 μM ATP; read-out: IC50, inhibitory activity toward TYK2
pIC50: −log10 of the molar value.
# pIC50 per record follows

Fc1cccc(Cl)c1C1=Nc2c(Br)n[nH]c2-c2cccnc2N1	7.00 to 8.00
Fc1cc2c(cc1Oc1ccccc1)N=C(c1c(F)cccc1Cl)Nc1c[nH]nc1-2	6.00 to 7.00
OCCNc1cc(F)c(C2=Nc3c[nH]nc3-c3ccccc3N2)c(F)c1	6.00 to 7.00
Cc1cc(F)c2c(c1)-c1[nH]nc(Cl)c1NC(c1c(F)cccc1F)=N2	6.00 to 7.00
Fc1cccc(F)c1C1=Nc2c(Br)n[nH]c2-c2ccccc2N1	7.00 to 8.00
Nc1ncc2c(n1)N=C(c1c(F)cccc1F)Nc1c[nH]nc1-2	7.00 to 8.00

Fill blank: measured pIC50 of the compound "Fc1cc2c(cc1-c1cccnn1)N=C(c1c(Cl)cccc1Cl)Nc1c[nH]nc1-2" is ____. 7.00 to 8.00

Fill blank: measured pIC50 of the compound "Fc1cc2c(cc1OC1CCOCC1)N=C(c1c(Cl)cccc1C(F)(F)F)Nc1c[nH]nc1-2" is ____. 7.00 to 8.00

Fill blank: measured pIC50 of the compound "Fc1cccc(Cl)c1C1=Nc2ccc(Cl)cc2-c2[nH]ncc2N1" is ____. 6.00 to 7.00

Fill blank: measured pIC50 of the compound "Cc1cc(F)c2c(c1)-c1[nH]ncc1NC(c1c(F)cccc1F)=N2" is ____. 6.00 to 7.00

* * *

- target system: wt human NUAK1, full length (Homo sapiens, UniProt O60285)
- Sequence (O60285 1-661): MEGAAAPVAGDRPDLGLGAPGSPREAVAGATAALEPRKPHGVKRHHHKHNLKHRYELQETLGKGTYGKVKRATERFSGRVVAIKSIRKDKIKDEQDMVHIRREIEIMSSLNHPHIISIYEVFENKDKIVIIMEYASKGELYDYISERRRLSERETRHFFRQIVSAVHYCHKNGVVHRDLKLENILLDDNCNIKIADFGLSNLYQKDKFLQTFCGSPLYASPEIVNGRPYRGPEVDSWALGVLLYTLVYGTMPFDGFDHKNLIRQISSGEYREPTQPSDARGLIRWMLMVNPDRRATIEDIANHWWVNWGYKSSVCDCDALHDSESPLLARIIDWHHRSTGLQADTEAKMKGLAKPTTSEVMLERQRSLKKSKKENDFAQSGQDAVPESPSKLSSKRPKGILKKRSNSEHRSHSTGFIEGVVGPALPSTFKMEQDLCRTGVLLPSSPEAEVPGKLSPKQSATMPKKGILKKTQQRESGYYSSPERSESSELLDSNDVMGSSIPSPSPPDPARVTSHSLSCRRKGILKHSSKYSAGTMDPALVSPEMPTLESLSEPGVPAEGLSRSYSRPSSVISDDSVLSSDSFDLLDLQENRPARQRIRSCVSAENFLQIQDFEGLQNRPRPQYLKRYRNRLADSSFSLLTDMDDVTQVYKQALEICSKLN
pIC50: −log10 of the molar value.
test readout: pIC50

CCNC(=O)c1cc2c(cc1F)-c1n[nH]cc1N=C(c1c(F)cccc1F)N2	7.00 to 8.00

Hi! What's the reported pIC50 for "Fc1cccc(Cl)c1C1=Nc2ccc(Cl)cc2-c2[nH]ncc2N1" on wt human NUAK1, full length (Homo sapiens, UniProt O60285)? 6.00 to 7.00

Hi! What's the reported pIC50 for "OCCNc1cc(F)c(C2=Nc3c[nH]nc3-c3ccccc3N2)c(F)c1" on wt human NUAK1, full length (Homo sapiens, UniProt O60285)? 6.00 to 7.00

Hi! What's the reported pIC50 for "Fc1cccc(F)c1C1=Nc2cc(OC3CCOCC3)ccc2-c2[nH]ncc2N1" on wt human NUAK1, full length (Homo sapiens, UniProt O60285)? 7.00 to 8.00

Hi! What's the reported pIC50 for "Fc1cccc(F)c1C1=Nc2ccc(CCCl)cc2-c2n[nH]cc2N1" on wt human NUAK1, full length (Homo sapiens, UniProt O60285)? 7.00 to 8.00

Hi! What's the reported pIC50 for "Fc1cc2c(cc1-c1ccnnc1)N=C(c1c(F)cccc1F)Nc1c[nH]nc1-2" on wt human NUAK1, full length (Homo sapiens, UniProt O60285)? > 8.00

* * *

- target system: wt human TYK2, catalytic site (Homo sapiens, UniProt P29597)
- Construct: 2 nM wt human TYK2, catalytic site (SignalChem/CAN)
- Sequence (P29597 897-1176 limits assumed): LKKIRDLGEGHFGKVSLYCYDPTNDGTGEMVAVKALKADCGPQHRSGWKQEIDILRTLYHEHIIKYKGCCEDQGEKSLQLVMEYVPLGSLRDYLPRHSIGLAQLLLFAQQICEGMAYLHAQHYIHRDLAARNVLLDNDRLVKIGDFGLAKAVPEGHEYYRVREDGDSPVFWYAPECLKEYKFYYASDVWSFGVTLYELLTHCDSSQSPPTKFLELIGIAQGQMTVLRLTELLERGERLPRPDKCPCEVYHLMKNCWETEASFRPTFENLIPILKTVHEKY
- assay remarks: HTRF KinEASE assay, TYK2
- condition label: 1 μM ATP; read-out: IC50, inhibitory activity toward TYK2
pIC50: −log10 of the molar value.
test readout: pIC50

Fc1cccc(F)c1C1=Nc2cn[nH]c2-c2cc(OC(F)F)ccc2N1 [Compound 42]	6.00 to 7.00
CCc1ccc2c(c1)-c1[nH]ncc1N=C(c1c(F)cccc1Cl)N2 [Compound 45]	6.00 to 7.00
O=[N+]([O-])c1cccc(F)c1C1=Nc2cn[nH]c2-c2cccnc2N1 [Compound 108]	6.00 to 7.00
Fc1cc(F)c(C2=Nc3cn[nH]c3-c3cc(F)ccc3N2)c(F)c1 [Compound 203]	6.00 to 7.00
Fc1cccc(F)c1C1=Nc2ccc(Cl)cc2-c2[nH]ncc2N1 [Compound 25]	6.00 to 7.00
Cc1ccc2c(c1)-c1[nH]ncc1N=C(c1c(F)cc(NCCF)cc1F)N2 [Compound 126]	6.00 to 7.00

Hi! What's the reported pIC50 for Cc1ccc2c(c1)-c1[nH]ncc1N=C(c1c(F)cccc1Cl)N2 [Compound 35] on wt human TYK2, catalytic site (Homo sapiens, UniProt P29597)? 6.00 to 7.00

Hi! What's the reported pIC50 for CSc1n[nH]c2c1NC(c1c(F)cccc1F)=Nc1ccccc1-2 [Compound 146] on wt human TYK2, catalytic site (Homo sapiens, UniProt P29597)? 6.00 to 7.00

Hi! What's the reported pIC50 for Fc1ccc2c(c1)-c1[nH]ncc1N=C(c1c(F)cc(OC(F)F)cc1F)N2 [Compound 215] on wt human TYK2, catalytic site (Homo sapiens, UniProt P29597)? 6.00 to 7.00

* * *

# IC50 per record follows
- target system: wt human TYK2, catalytic site (Homo sapiens)
- Construct: 2 nM wt human TYK2, catalytic site (SignalChem/CAN)
- assay remarks: HTRF KinEASE assay, TYK2
- condition label: 1 μM ATP; read-out: IC50, inhibitory activity toward TYK2

Observe how each entry below is paired with its result.
Fc1cccc(F)c1C1=Nc2cn[nH]c2-c2cn[nH]c2N1	0.01 to 0.1 µM
Fc1cccc(Cl)c1C1=Nc2cc(OC3CCOCC3)ccc2-c2[nH]ncc2N1	0.01 to 0.1 µM
Fc1cc2c(cc1OC1CCOCC1)N=C(c1c(Cl)cccc1Cl)Nc1c[nH]nc1-2	< 0.01 µM

Fill blank: measured IC50 of the molecule "Fc1cc2c(cc1-c1cccnn1)N=C(c1c(F)cccc1Cl)Nc1c[nH]nc1-2" is ____. < 0.01 µM

Fill blank: measured IC50 of the molecule "Fc1cccc(F)c1C1=Nc2cc(-c3ccn[nH]3)ccc2-c2[nH]ncc2N1" is ____. 0.01 to 0.1 µM

Fill blank: measured IC50 of the molecule "Fc1ccc2c(c1)-c1[nH]ncc1N=C(c1c(F)cccc1Cl)N2" is ____. 0.01 to 0.1 µM

Fill blank: measured IC50 of the molecule "Fc1cccc(-c2ccc3c(c2)N=C(c2c(F)cccc2Cl)Nc2c[nH]nc2-3)c1" is ____. < 0.01 µM

Fill blank: measured IC50 of the molecule "Fc1cccc(F)c1C1=Nc2cnc(OC(F)F)cc2-c2n[nH]cc2N1" is ____. 0.01 to 0.1 µM

Fill blank: measured IC50 of the molecule "COc1ccc2c(c1)-c1[nH]ncc1N=C(c1c(F)cccc1F)N2" is ____. 0.1 to 1 µM

Fill blank: measured IC50 of the molecule "COc1ccc2c(c1)-c1[nH]ncc1N=C(c1c(F)cccc1Cl)N2" is ____. 0.1 to 1 µM

Fill blank: measured IC50 of the molecule "Fc1cccc(-c2ccc3c(c2)N=C(c2c(F)cccc2F)Nc2c[nH]nc2-3)c1" is ____. 0.01 to 0.1 µM

Fill blank: measured IC50 of the molecule "Fc1ccccc1-c1ccc2c(c1)N=C(c1c(F)cccc1F)Nc1c[nH]nc1-2" is ____. 0.01 to 0.1 µM

Fill blank: measured IC50 of the molecule "CCNC(=O)c1cc2c(cc1F)-c1n[nH]cc1N=C(c1c(F)cccc1F)N2" is ____. 0.01 to 0.1 µM

Fill blank: measured IC50 of the molecule "Fc1cc2c(cc1-c1ccnnc1)N=C(c1c(Cl)cccc1Cl)Nc1c[nH]nc1-2" is ____. < 0.01 µM

Fill blank: measured IC50 of the molecule "Fc1cccc(I)c1C1=Nc2ccccc2-c2[nH]ncc2N1" is ____. 0.1 to 1 µM

Fill blank: measured IC50 of the molecule "CCC(CC)Oc1cc2c(cc1F)-c1n[nH]cc1N=C(c1c(F)cccc1Cl)N2" is ____. 0.01 to 0.1 µM

Fill blank: measured IC50 of the molecule "COC(=O)Nc1ccc2c(c1)-c1[nH]ncc1NC(c1c(F)cccc1F)=N2" is ____. 0.1 to 1 µM

Fill blank: measured IC50 of the molecule "Fc1cccc(F)c1C1=Nc2cnccc2-c2[nH]ncc2N1" is ____. 0.01 to 0.1 µM
